System: rumen inoculum
ASSAY_INFO: Rumen in vitro model
Parameters: species or system steer
MEASUREMENT_SETUP: 5 ppm
# ACE annotations
READOUT_LABEL: ACE

1) CN[C@H]1C(=O)N[C@H]2C(=O)N[C@H](C(=O)N[C@H]3C(=O)N[C@H]4C(=O)N[C@H](C(=O)N[C@H](C(=O)O)c5cc(O)cc(O[C@H]6O[C@H](CO)[C@@H](O)[C@H](O)[C@@H]6O)c5-c5cc4ccc5O)[C@H](O)c4cc(Cl)c(c(Cl)c4)Oc4cc3cc(c4O[C@@H]3O[C@H](C(=O)O)[C@@H](O)[C@H](O)[C@H]3NC(=O)CCCCCCCCC(C)C)Oc3ccc(cc3Cl)[C@H]2O)c2cc(cc(O)c2Cl)Oc2cc1ccc2O | 88% OF CONTROL
2) CC[C@@]1([C@H]2O[C@H]([C@H]3O[C@@](O)(CO)[C@H](C)C[C@@H]3C)C[C@H]2C)CC[C@H]([C@@]2(C)CC[C@]3(C[C@H](O)[C@@H](C)[C@@H]([C@H](C)[C@H](OC)[C@@H](C)C(=O)O)O3)O2)O1 [Monensin Sodium] | 74% OF CONTROL
3) CCCCCCCCCC(=O)N[C@H]1[C@H](Oc2c3cc4cc2Oc2c(Cl)cc(cc2Cl)[C@@H](O)[C@@H]2NC(=O)[C@H](NC(=O)[C@@H]4NC(=O)[C@H]4NC(=O)[C@H](NC(=O)[C@H](NC)c5ccc(O)c(c5)Oc5cc(O)c(Cl)c4c5)[C@H](O)c4ccc(c(Cl)c4)O3)c3ccc(O)c(c3)-c3c(O[C@H]4O[C@H](CO)[C@@H](O)[C@H](O)[C@@H]4O)cc(O)cc3[C@@H](C(=O)O)NC2=O)O[C@H](C(=O)O)[C@@H](O)[C@@H]1O [AAD 216A] | 66% OF CONTROL
4) CN[C@H](CC(C)C)C(=O)N[C@H]1C(=O)N[C@@H](CC(N)=O)C(=O)N[C@H]2C(=O)N[C@H]3C(=O)N[C@H](C(=O)N[C@H](C(=O)O)c4cc(O)cc(O)c4-c4cc3ccc4O)[C@H](O)c3ccc(c(Cl)c3)Oc3cc2cc(c3O[C@@H]2O[C@H](CO)[C@@H](O)[C@H](O)[C@H]2O[C@H]2C[C@](C)(N)[C@H](O)[C@H](C)O2)Oc2ccc(cc2Cl)[C@H]1O | 93% OF CONTROL
5) CN[C@H]1C(=O)N[C@H]2C(=O)N[C@H](C(=O)N[C@H]3C(=O)N[C@H]4C(=O)N[C@H](C(=O)N[C@H](C(=O)O)c5cc(O)cc(O[C@H]6O[C@H](CO)[C@@H](O)[C@H](O)[C@@H]6O)c5-c5cc4ccc5O)[C@H](O)c4cc(Cl)c(c(Cl)c4)Oc4cc3cc(c4O[C@@H]3O[C@H](C(=O)O)[C@@H](O)[C@H](O)[C@H]3NC(=O)CCCCCCCC(C)C)Oc3ccc(cc3Cl)[C@H]2O)c2cc(cc(O)c2Cl)Oc2cc1ccc2O [AAD 216B] | 99% OF CONTROL

----------
# PRO annotations
Tested on: rumen inoculum
ASSAY_INFO: Rumen in vitro model
Set-up: species or system steer
MEASUREMENT_SETUP: 0.5 ppm
READOUT_LABEL: PRO (% OF CONTROL)

1. CN[C@H]1C(=O)N[C@H]2C(=O)N[C@H](C(=O)N[C@H]3C(=O)N[C@H]4C(=O)N[C@H](C(=O)N[C@H](C(=O)O)c5cc(O)cc(O[C@H]6O[C@H](CO)[C@@H](O)[C@H](O)[C@@H]6O)c5-c5cc4ccc5O)[C@H](O)c4cc(Cl)c(c(Cl)c4)Oc4cc3cc(c4O[C@@H]3O[C@H](C(=O)O)[C@@H](O)[C@H](O)[C@H]3NC(=O)CCCCCCCCC(C)C)Oc3ccc(cc3Cl)[C@H]2O)c2cc(cc(O)c2Cl)Oc2cc1ccc2O | 99
2. CCCCCCCCCC(=O)N[C@H]1[C@H](Oc2c3cc4cc2Oc2c(Cl)cc(cc2Cl)[C@@H](O)[C@@H]2NC(=O)[C@H](NC(=O)[C@@H]4NC(=O)[C@H]4NC(=O)[C@H](NC(=O)[C@H](NC)c5ccc(O)c(c5)Oc5cc(O)c(Cl)c4c5)[C@H](O)c4ccc(c(Cl)c4)O3)c3ccc(O)c(c3)-c3c(O[C@H]4O[C@H](CO)[C@@H](O)[C@H](O)[C@@H]4O)cc(O)cc3[C@@H](C(=O)O)NC2=O)O[C@H](C(=O)O)[C@@H](O)[C@@H]1O [AAD 216A] | 99
3. CC[C@@]1([C@H]2O[C@H]([C@H]3O[C@@](O)(CO)[C@H](C)C[C@@H]3C)C[C@H]2C)CC[C@H]([C@@]2(C)CC[C@]3(C[C@H](O)[C@@H](C)[C@@H]([C@H](C)[C@H](OC)[C@@H](C)C(=O)O)O3)O2)O1 [Monensin Sodium] | 112

----------
# ACE annotations
Test system: rumen inoculum
ASSAY_INFO: Rumen in vitro model
Set-up: species or system steer
MEASUREMENT_SETUP: 50 ppm
READOUT_LABEL: ACE (% OF CONTROL)

1) CCCCCCCCCC(=O)N[C@H]1[C@H](Oc2c3cc4cc2Oc2c(Cl)cc(cc2Cl)[C@@H](O)[C@@H]2NC(=O)[C@H](NC(=O)[C@@H]4NC(=O)[C@H]4NC(=O)[C@H](NC(=O)[C@H](NC)c5ccc(O)c(c5)Oc5cc(O)c(Cl)c4c5)[C@H](O)c4ccc(c(Cl)c4)O3)c3ccc(O)c(c3)-c3c(O[C@H]4O[C@H](CO)[C@@H](O)[C@H](O)[C@@H]4O)cc(O)cc3[C@@H](C(=O)O)NC2=O)O[C@H](C(=O)O)[C@@H](O)[C@@H]1O [AAD 216A] | 86
2) CN[C@H]1C(=O)N[C@H]2C(=O)N[C@H](C(=O)N[C@H]3C(=O)N[C@H]4C(=O)N[C@H](C(=O)N[C@H](C(=O)O)c5cc(O)cc(O[C@H]6O[C@H](CO)[C@@H](O)[C@H](O)[C@@H]6O)c5-c5cc4ccc5O)[C@H](O)c4cc(Cl)c(c(Cl)c4)Oc4cc3cc(c4O[C@@H]3O[C@H](C(=O)O)[C@@H](O)[C@H](O)[C@H]3NC(=O)CCCCCCCCC(C)C)Oc3ccc(cc3Cl)[C@H]2O)c2cc(cc(O)c2Cl)Oc2cc1ccc2O | 69
3) CC[C@@]1([C@H]2O[C@H]([C@H]3O[C@@](O)(CO)[C@H](C)C[C@@H]3C)C[C@H]2C)CC[C@H]([C@@]2(C)CC[C@]3(C[C@H](O)[C@@H](C)[C@@H]([C@H](C)[C@H](OC)[C@@H](C)C(=O)O)O3)O2)O1 [Monensin Sodium] | 73
4) CN[C@H]1C(=O)N[C@H]2C(=O)N[C@H](C(=O)N[C@H]3C(=O)N[C@H]4C(=O)N[C@H](C(=O)N[C@H](C(=O)O)c5cc(O)cc(O[C@H]6O[C@H](CO)[C@@H](O)[C@H](O)[C@@H]6O)c5-c5cc4ccc5O)[C@H](O)c4cc(Cl)c(c(Cl)c4)Oc4cc3cc(c4O[C@@H]3O[C@H](C(=O)O)[C@@H](O)[C@H](O)[C@H]3NC(=O)CCCCCCCC(C)C)Oc3ccc(cc3Cl)[C@H]2O)c2cc(cc(O)c2Cl)Oc2cc1ccc2O [AAD 216B] | 87

----------
Test system: rumen inoculum
ASSAY_INFO: Rumen in vitro model
Set-up: species or system steer
MEASUREMENT_SETUP: 5 ppm
READOUT_LABEL: IVA (% OF CONTROL)

1. CN[C@H](CC(C)C)C(=O)N[C@H]1C(=O)N[C@@H](CC(N)=O)C(=O)N[C@H]2C(=O)N[C@H]3C(=O)N[C@H](C(=O)N[C@H](C(=O)O)c4cc(O)cc(O)c4-c4cc3ccc4O)[C@H](O)c3ccc(c(Cl)c3)Oc3cc2cc(c3O[C@@H]2O[C@H](CO)[C@@H](O)[C@H](O)[C@H]2O[C@H]2C[C@](C)(N)[C@H](O)[C@H](C)O2)Oc2ccc(cc2Cl)[C@H]1O [Vancomycin] | 99

----------
Tested on: rumen inoculum
ASSAY_INFO: Rumen in vitro model
Parameters: species or system steer
MEASUREMENT_SETUP: 0.5 ppm
# AMO annotations
READOUT_LABEL: AMO (% OF CONTROL)

1. CN[C@H](CC(C)C)C(=O)N[C@H]1C(=O)N[C@@H](CC(N)=O)C(=O)N[C@H]2C(=O)N[C@H]3C(=O)N[C@H](C(=O)N[C@H](C(=O)O)c4cc(O)cc(O)c4-c4cc3ccc4O)[C@H](O)c3ccc(c(Cl)c3)Oc3cc2cc(c3O[C@@H]2O[C@H](CO)[C@@H](O)[C@H](O)[C@H]2O[C@H]2C[C@](C)(N)[C@H](O)[C@H](C)O2)Oc2ccc(cc2Cl)[C@H]1O [Vancomycin] | 0
2. CCCCCCCCCC(=O)N[C@H]1[C@H](Oc2c3cc4cc2Oc2c(Cl)cc(cc2Cl)[C@@H](O)[C@@H]2NC(=O)[C@H](NC(=O)[C@@H]4NC(=O)[C@H]4NC(=O)[C@H](NC(=O)[C@H](NC)c5ccc(O)c(c5)Oc5cc(O)c(Cl)c4c5)[C@H](O)c4ccc(c(Cl)c4)O3)c3ccc(O)c(c3)-c3c(O[C@H]4O[C@H](CO)[C@@H](O)[C@H](O)[C@@H]4O)cc(O)cc3[C@@H](C(=O)O)NC2=O)O[C@H](C(=O)O)[C@@H](O)[C@@H]1O [AAD 216A] | 0
3. CN[C@H]1C(=O)N[C@H]2C(=O)N[C@H](C(=O)N[C@H]3C(=O)N[C@H]4C(=O)N[C@H](C(=O)N[C@H](C(=O)O)c5cc(O)cc(O[C@H]6O[C@H](CO)[C@@H](O)[C@H](O)[C@@H]6O)c5-c5cc4ccc5O)[C@H](O)c4cc(Cl)c(c(Cl)c4)Oc4cc3cc(c4O[C@@H]3O[C@H](C(=O)O)[C@@H](O)[C@H](O)[C@H]3NC(=O)CCCCCCCCC(C)C)Oc3ccc(cc3Cl)[C@H]2O)c2cc(cc(O)c2Cl)Oc2cc1ccc2O | 0
